// provenance: PubChem BioAssay (NCI)

- System: UACC-257 melanoma
- PROTOCOL DETAILS: NCI-60 one-dose screen, 48 h (100 = growth as untreated, 0 = no growth, -100 = all killed)
- APPLIED CONDITIONS: 10 µM unless noted
The panel holds about 83,000 compounds, 20% with a hit somewhere; the sample as a whole holds those more often.

| COMPOUND | growth (%) |
| --- | --- |
| CC1(C)CC[C@]2(C(=O)O)CC[C@]3(C)C(=CCC4[C@@]5(C)C[C@@H](O)[C@@H]6OC(c7ccco7)OC[C@@]6(C)C5CC[C@]43C)C2C1 (some centres not stated) | 1.3 |
| CC1(C)CC[C@]2(C(=O)O)CC[C@]3(C)C(=CCC4[C@@]5(C)C[C@@H](O)[C@@H]6OC(c7ccccc7Br)OC[C@@]6(C)C5CC[C@]43C)C2C1 (some centres not stated) | 18.2 |
| COc1ccc(/C=C/c2n(Cc3ccc4ccccc4c3)c3ccccc3[n+]2Cc2ccc3ccccc3c2)cc1 | -91.7 |
| CN1CCN(c2ccc(C(=O)/C=C/c3cc(C(F)(F)F)cc(C(F)(F)F)c3)cc2)CC1 | -88.9 |
| C#CCOc1cc(N(CC)CC)ccc1C(C(=O)NC(C)(C)C)N(C(=O)C1CCc2cc(F)ccc2O1)c1ccccc1Br (configuration not stated) | 60 |
| COc1ccc2c(c1)c(-c1cc3nc(-c4cn(C)c5ncccc45)cc(N)n3n1)cn2C | -78.7 |
| COc1ccc(-c2nc3cc(C)ccc3n2CC(=O)N=Nc2c(O)[nH]c3ccccc23)cc1 | -7.27 |

---

- Tested on: HS 578T breast
- PROTOCOL DETAILS: NCI-60 one-dose screen, 48 h
- APPLIED CONDITIONS: 10 µM unless noted
About 83,000 compounds went through this panel and 20% of them were active in at least one assay; those are over-represented in the sample as a whole. Calls of active or inactive are those of the source. Rule for the calls: active = growth percent below 10; inactive = the rest.
Labels: active, inactive

| COMPOUND | CLASS LABEL |
| --- | --- |
| COc1ccc(C(=O)/C=C/c2ccc(Oc3nc(Nc4ccc(F)cc4)nc(N(C)C)n3)c(OC)c2)cc1 | inactive |
| NS(=O)(=O)c1ccc(-n2cc(-c3cccc(NC(=O)c4cc(N5CCOCC5)cc(C(F)(F)F)c4)c3)nn2)cc1 | inactive |
| COc1ccc(C(=O)/C=C/c2ccc(OCc3ccc(F)cc3)c(OC)c2)cc1OC | inactive |
| Cc1cc(C)n(-c2ccc3nnc(-c4ccccc4)n3n2)n1 | inactive |
| COc1ccc(C2CC(c3ccc(S(=O)(=O)NCCNc4nc(Nc5ccc(F)cc5)nc(N(C)C)n4)cc3)=Nc3c(N)nc(N)nc3N2)cc1 (centres undefined) | inactive |
| COc1ccc(C(=O)/C=C/c2c(F)cccc2Cl)cc1S(N)(=O)=O | inactive |
| CCOP(=O)(OCCCl)c1nc(-c2ccc(C)cc2)oc1NCc1ccccc1 (centres undefined) | inactive |
| C=C1CC[C@@H]2[C@]3(C)COC(c4cn[nH]c4-c4cccc(Br)c4)O[C@@H]3CC[C@@]2(C)[C@@H]1C/C=C1/C(=O)OCC1O (some centres undefined) | active |
| C=CC(=O)Nc1ccc(C)c(Oc2ccc(Cl)cc2)c1 | inactive |
| CCCCCCCCc1ccc(C(=O)Nc2ccc(C)cc2C(=O)O)cc1C | inactive |
| Cc1ccc(C(=O)CSc2nc3ccc(F)cc3c(=O)n2-c2ccc(Cl)cc2)cc1 | active |
| COc1ccc2c(c1)C(=N/N=C(\C)c1ccc(OC)c(S(N)(=O)=O)c1)C(=O)N2 | inactive |
| COc1cc(/C=C/C(=O)c2ccccc2)ccc1Oc1nc(Nc2ccc(F)cc2)nc(N(C)C)n1 | inactive |
| COc1ccc(/C=N/NC(=O)Cn2nc(Cc3ccc(OC)cc3)c3onc(C)c3c2=O)cc1 | inactive |
| C#CCOc1ccc(/C=N/Nc2nc(-c3cc4cc(Br)ccc4oc3=O)cs2)cc1OC | inactive |
| N/C(=N\c1nc2ccccc2s1)NC(=O)Nc1ccc(Cl)cc1Cl | active |
| O=C1Nc2ccc([N+](=O)[O-])cc2C1=Nc1ccccc1 | inactive |
| CC(=O)OC[C@@]1(C)C2CC[C@]3(C)C(CC=C4C5CC(C)(C)CC[C@]5(C(=O)Nc5ccc(C)cc5)CC[C@]43C)[C@@]2(C)C[C@@H](OC(C)=O)[C@@H]1OC(C)=O (some centres undefined) | inactive |
| CCOC(=O)/C=C/c1cccc2c1C(=O)NC(C)(c1cc3cc(Cl)ccc3oc1=O)N2 (centres undefined) | inactive |

---

This listing pairs compounds with measured growth.
- Tested on: T-47D breast
- PROTOCOL DETAILS: NCI-60 one-dose screen, 48 h (100 = growth as untreated, 0 = no growth, -100 = all killed)
- APPLIED CONDITIONS: 10 µM unless noted
Compounds without any hit were thinned out: in the full panel of roughly 83,000, 20% have a hit. Activity calls are given as the source filed them. How the source made its calls: active means growth percent below 10; inactive means the rest.
QUANTITY NAME: growth

| COMPOUND | TARGET OR TEST SYSTEM | QUANTITY NAME | RESULT |
| --- | --- | --- | --- |
| Clc1cccc(Cl)c1/C=C/c1cc(/C=C/c2ccc(Br)cc2)c2ccccc2n1 | T-47D breast | growth | 81.2% (inactive) |
| O=C1N/C(=N\c2nccs2)S/C1=C\C=C/c1ccccc1 | T-47D breast | growth | 32.7% (inactive) |
| COc1ccc(C2CC(c3ccc(S(=O)(=O)NCCNc4nc(Nc5ccc(F)cc5)nc(N(C)C)n4)cc3)=Nc3c(N)nc(N)nc3N2)cc1 (centres undefined) | T-47D breast | growth | 66.2% (inactive) |
| CCN(CC)CCOc1ccc(Nc2ncc3cc(-c4ccc(O)c(C#N)c4)c(=O)n(C)c3n2)cc1 | T-47D breast | growth | 36.5% (inactive) |
| Cc1ccc(C(=O)C(c2c[nH]c3ccccc23)c2c[nH]c3ccccc23)cc1 | T-47D breast | growth | 45.7% (inactive) |
| CCOc1ccc(-c2c(C#N)c(-c3ccc(Cl)cc3)nc3n[nH]c(-c4ccc(Cl)cc4)c23)cc1OC | T-47D breast | growth | 25.1% (inactive) |
| C=C1CC[C@@H]2[C@]3(C)COC(c4cn(-c5ccccc5)nc4-c4ccccc4)O[C@@H]3CC[C@@]2(C)[C@@H]1C/C=C1/C(=O)OC[C@H]1O (some centres undefined) | T-47D breast | growth | -62.9% (active) |
| COc1ccc(NC(=O)Cn2c(O)c(N=Nc3ccc(S(N)(=O)=O)cc3)c3ccccc32)cc1 | T-47D breast | growth | 66.5% (inactive) |
| COc1cc(OC)cc(-c2cc3ccc(N(C)C)cc3c(=O)[nH]2)c1 | T-47D breast | growth | 82% (inactive) |

---

- Test system: RXF 393 renal
- PROTOCOL DETAILS: NCI-60 one-dose screen, 48 h
- APPLIED CONDITIONS: 10 µM unless noted
The panel holds about 83,000 compounds, 20% with a hit somewhere; the sample as a whole holds those more often. The source made the active and inactive calls. How the source made its calls: active means growth percent below 10; inactive means the rest.
Outcomes: 1 (yes) for active, 0 (no) for inactive

| COMPOUND | TARGET OR TEST SYSTEM | CLASS LABEL |
| --- | --- | --- |
| COc1ccc(C(=O)/C=C/c2ccccc2Cl)cc1S(N)(=O)=O | RXF 393 renal | 0 (no) |
| Cc1cccc(NC(=O)[C@]23CCC(C)(C)CC2C2=CCC4[C@@]5(C)C[C@@H](O)[C@H](O)[C@@](C)(CO)C5CC[C@@]4(C)[C@]2(C)CC3)c1 (some centres undefined) | RXF 393 renal | 1 (yes) |
| CC(=O)Nc1cccc(Nc2nccc(N[C@@H](C)c3ccccc3)n2)c1 | RXF 393 renal | 0 (no) |
| Cn1cc(-c2nc(N)nnc2-c2c[nH]c3ccc(Br)cc23)c2cccnc21 | RXF 393 renal | 0 (no) |
| CCOC(=O)/C=C/c1cccc2c1C(=O)NC(C)(c1cc3cc(Br)ccc3oc1=O)N2 (centres undefined) | RXF 393 renal | 0 (no) |
| COc1cc(C2CC(c3cc(OC)c(OC)c(OC)c3)=Nc3c(N)nc(N)nc3N2)ccc1Oc1nc(NCCO)nc(N2CCOCC2)n1 (centres undefined) | RXF 393 renal | 0 (no) |
| CN(C)CCn1c2ccccc2c2nc3cc4ccccc4cc3nc21 | RXF 393 renal | 1 (yes) |
| COc1ccc2[nH]cc(-c3nnc(N)nc3-c3cn(C)c4ncc(Br)cc34)c2c1 | RXF 393 renal | 0 (no) |
| CSc1ccc(NC(=O)c2ccc3nn(/C(C#N)=C/c4ccccn4)nc3c2)cc1 | RXF 393 renal | 1 (yes) |

---

Measured growth by item
- Tested on: SK-MEL-5 melanoma
- PROTOCOL DETAILS: NCI-60 one-dose screen, 48 h (100 = growth as untreated, 0 = no growth, -100 = all killed)
- APPLIED CONDITIONS: 10 µM unless noted
The panel holds about 83,000 compounds, 20% with a hit somewhere; the sample as a whole holds those more often.

| CHEMICAL STRUCTURE | growth (%) |
| --- | --- |
| CC(=O)Oc1ccccc1C(=O)[Se]CC(=O)Nc1cccc(C(F)(F)F)c1 | -86.4 |
| Cc1cc(C)cc(C(=O)Nc2cccc(-c3cn(-c4ccc(S(N)(=O)=O)cc4)nn3)c2)c1 | 24.4 |
| Cc1ccc(NC(=O)CN2CCN(c3ncnc4c3cnn4-c3ccccc3)CC2)cc1 | 77.6 |
| O=C(/C=C/c1ccc(-c2ccccc2)cc1)c1nc2ccccc2n1Cc1ccc(F)cc1 | 47.9 |
| CC(=O)Nc1cccc(-c2nc3cc(-c4ccc(O)cc4)ccc3n2C)c1 | -9.75 |
| COc1ccc(C(=O)/C=C/c2ccc(Oc3nc(Nc4ccc(F)cc4)nc(N(C)C)n3)c(OC)c2)cc1 | 32.9 |
| COc1ccc2[nH]c(=O)c(CSc3nccc(-c4ccc(OC)c(OC)c4)n3)cc2c1 | -1.05 |
| CNC(=O)c1cc(Oc2ccc3nc(NC(=O)Nc4cccc(OC(F)(F)F)c4)sc3c2)ccn1 | 53.7 |
| c1ccc(-c2csc(Nc3cccc(Nc4nc(-c5ccccc5)cs4)c3)n2)cc1 | 21 |
